Target: HLA-A*02:12
Experiment: IEDB peptide-MHC binding, purified MHC/direct/fluorescence; filed as Kd, often an IC50 or EC50 that approximates it; bounds were set here for any values at or beyond the usual limits of such assays
Conditions: source organism: Limestone Canyon virus
pKd: −log10 of the molar value.
quantityName: pKd

monomerSequence	result
RTLGVFRYK	≤ 4.70

Let us move to another entry and its pKd.
Sure, the documented pKd for KLKSVGKAY is ≤ 4.70

---

Molecular target: HLA-A*29:02
Test: IEDB peptide-MHC binding, purified MHC/competitive/radioactivity; filed as Kd, often an IC50 or EC50 that approximates it; bounds were set here for any values at or beyond the usual limits of such assays
Settings: source organism: Homo sapiens
quantityName: pKd
Entry type: numeric. Quantity: pKd, the -log10 of concentration in molar units.

The value of pKd measured for the sequence KMKEIAEAY turned out to be 7.05

---

Target: HLA-A*11:01
Experiment: IEDB peptide-MHC binding, purified MHC/direct/fluorescence; filed as Kd, often an IC50 or EC50 that approximates it; bounds were set here for any values at or beyond the usual limits of such assays
Details: source organism: Giardia lamblia ATCC 50803
quantityName: Kd

monomerSequence	Kd
PTKCGENLY	≥ 20 µM
EFFDTEPQL	≥ 20 µM
RENQVAVVR	≥ 20 µM

Kd reading for KTPWDRFCK : 0.0641 µM

The sequence KLLQICMWF showed Kd equal to ≥ 20 µM

---

Molecular target: HLA-B*51:01
Assay: IEDB peptide-MHC binding, purified MHC/competitive/fluorescence; filed as Kd, often an IC50 or EC50 that approximates it; bounds were set here for any values at or beyond the usual limits of such assays
Conditions: source organism: West Nile virus
quantityName: Kd

// Kd lookup, sequence = RPAVGGKTV , result: ≥ 20 µM

---

Target: HLA-B*48:01
Experiment: IEDB peptide-MHC binding, purified MHC/direct/fluorescence; filed as Kd, often an IC50 or EC50 that approximates it; bounds were set here for any values at or beyond the usual limits of such assays
Details: source organism: Influenza A virus (A/chicken/Hubei/wk/1997(H5N1))
pKd: −log10 of the molar value.
quantityName: pKd

Kindly note: HLA-B*48:01, MKWMMAMKY , pKd value reported: ≤ 4.70

---

Biological target: HLA-A*02:19
Assay: IEDB peptide-MHC binding, purified MHC/competitive/fluorescence; filed as Kd, often an IC50 or EC50 that approximates it; bounds were set here for any values at or beyond the usual limits of such assays
Settings: source organism: Vibrio vulnificus
quantityName: Kd

So for DEWECTRDD , the logged Kd turned out to be ≥ 20 µM

---

Target: HLA-A*11:01
Assay: IEDB peptide-MHC binding, purified MHC/direct/fluorescence; filed as Kd, often an IC50 or EC50 that approximates it; bounds were set here for any values at or beyond the usual limits of such assays
Settings: source organism: Yersinia pestis
quantityName: Kd

Lab book: Kd of TMPELAWAV noted as ≥ 20 µM

---

Target: HLA-A*02:01
Assay: IEDB peptide-MHC binding, purified MHC/competitive/fluorescence; filed as Kd, often an IC50 or EC50 that approximates it; bounds were set here for any values at or beyond the usual limits of such assays
Conditions: source organism: Human immunodeficiency virus 1
quantityName: Kd

Reported Kd (HLA-A*02:01) for entry DIKDTKEAL is ≥ 20 µM

---

Biological target: HLA-B*57:01
Experiment: IEDB peptide-MHC binding, purified MHC/competitive/fluorescence; filed as Kd, often an IC50 or EC50 that approximates it; bounds were set here for any values at or beyond the usual limits of such assays
Conditions: source organism: Escherichia coli str. K-12 substr. DH10B
quantityName: pKd
Give only the number. pKd is defined as minus log10 of concentration in molar units.

VSRDFDDVY on HLA-B*57:01 gives pKd = 6.10

---

Target: HLA-A*02:06
Test: IEDB peptide-MHC binding, purified MHC/competitive/radioactivity; filed as Kd, often an IC50 or EC50 that approximates it; bounds were set here for any values at or beyond the usual limits of such assays
Conditions: source organism: Human immunodeficiency virus type 1 (CLONE 12)
quantityName: pKd
Quick note: pKd values are minus log10 of concentrations in mol/L.

Form field pKd, entry PLTFGWCYKL : 4.88

---

Biological target: HLA-A*02:06
Assay: IEDB peptide-MHC binding, purified MHC/competitive/fluorescence; filed as Kd, often an IC50 or EC50 that approximates it; bounds were set here for any values at or beyond the usual limits of such assays
Conditions: source organism: Mycobacterium tuberculosis variant bovis BCG str. Pasteur 1173P2
quantityName: Kd

Tested on HLA-A*02:06, the item KVMVICYAY showed Kd equal to ≥ 20 µM

---

Target: HLA-B*58:01
Assay: IEDB peptide-MHC binding, purified MHC/competitive/radioactivity; filed as Kd, often an IC50 or EC50 that approximates it; bounds were set here for any values at or beyond the usual limits of such assays
Conditions: source organism: Dengue virus 4 Philippines/H241/1956
quantityName: Kd (nM)
The reply should contain only the number, in nM.

Known Kd results, listed for orientation:
monomerSequence	assayTarget	unitText	Kd
MSSEGAWKHA	HLA-B*58:01	nM	254
KTQRSGALW	HLA-B*58:01	nM	6.11

Proceed to the following item.
Lab book: Kd of SSSNPTIEEG noted as 5990

---

Target: HLA-B*27:03
Assay: IEDB peptide-MHC binding, purified MHC/direct/fluorescence; filed as Kd, often an IC50 or EC50 that approximates it; bounds were set here for any values at or beyond the usual limits of such assays
Settings: source organism: Vibrio cholerae V52
pKd: −log10 of the molar value.
quantityName: pKd

The sequence listed as MGMEQTMSV has a reported pKd of ≤ 4.70

---

Target: HLA-B*53:01
Assay: IEDB peptide-MHC binding, purified MHC/competitive/fluorescence; bounds were set here for any values at or beyond the usual limits of such assays
Settings: source organism: Homo sapiens
quantityName: IC50

With HLA-B*53:01 as the test system, ILNRETLLDFV showed IC50 of ≥ 20 µM

---

Target: HLA-B*51:01
Assay: IEDB peptide-MHC binding, purified MHC/competitive/radioactivity; filed as Kd, often an IC50 or EC50 that approximates it; bounds were set here for any values at or beyond the usual limits of such assays
Conditions: source organism: Dengue virus 3 Martinique/1243/1999
quantityName: Kd

// known answers, use as guide
monomerSequence	assayTarget	result
LPEDIEQMAN	HLA-B*51:01	≥ 69.6 µM
FPYSIPATLL	HLA-B*51:01	0.325 µM
SPIINREGKV	HLA-B*51:01	≥ 69.6 µM

API: the following record is the query input.
Sure, the documented Kd for GPLVAGGLLI is 6.03 µM

---

Molecular target: HLA-B*46:01
Experiment: IEDB peptide-MHC binding, purified MHC/direct/fluorescence; filed as Kd, often an IC50 or EC50 that approximates it; bounds were set here for any values at or beyond the usual limits of such assays
Settings: source organism: Mycobacterium tuberculosis
Measured Kd by item

Before answering, review these 2 worked examples.
monomerSequence	assayTarget	Kd
YPACEAIGL	HLA-B*46:01	≥ 20 µM
KVMVICYAY	HLA-B*46:01	≥ 20 µM

Proceeding to the next sequence to report its Kd.
Given item RPAPATGAL , the value recorded as its Kd is ≥ 20 µM

---

Reported Kd values follow for various sequences
Molecular target: HLA-A*23:01
Experiment: IEDB peptide-MHC binding, purified MHC/competitive/radioactivity; filed as Kd, often an IC50 or EC50 that approximates it; bounds were set here for any values at or beyond the usual limits of such assays
Conditions: source organism: Mammarenavirus guanaritoense
State the value with its unit after it.

sequence NFGTFYEHI , Kd observed: 0.451 µM

Documented Kd of LFHAFFGAL : 12.5 µM

---

Biological target: HLA-A*03:01
Assay: IEDB peptide-MHC binding, purified MHC/competitive/radioactivity; filed as Kd, often an IC50 or EC50 that approximates it; bounds were set here for any values at or beyond the usual limits of such assays
Conditions: source organism: Dengue virus 4 Philippines/H241/1956
quantityName: Kd (nM)
A number alone suffices; assume nM.

monomerSequence	Kd, nM
KLGEFGRAK	1.75

Please find the next sequence below.
Reported Kd of RVSTPQGLVK : 5.93

---

Target: HLA-B*58:01
Assay: IEDB peptide-MHC binding, purified MHC/direct/fluorescence; filed as Kd, often an IC50 or EC50 that approximates it; bounds were set here for any values at or beyond the usual limits of such assays
Conditions: source organism: Pasteurella multocida
quantityName: Kd

Kd in this record for LMAEDLANV : ≥ 20 µM

---

Target: HLA-A*31:01
Test: IEDB peptide-MHC binding, purified MHC/competitive/radioactivity; filed as Kd, often an IC50 or EC50 that approximates it; bounds were set here for any values at or beyond the usual limits of such assays
Conditions: source organism: Mammarenavirus machupoense
quantityName: Kd (µM)
Give a bare numeral; the unit µM is implied.

Observed Kd, HLA-A*31:01, TMLRNSELCH : 8.82

Data credit: the Immune Epitope Database (IEDB)
